// data source = patent US20180339043A1

- EXPERIMENTAL TARGET: T1, PD-L1 antibody
- T1 construct: also called anti-PD-L1
- METHOD NOTES: dissociation ELISA: PD-L1 antibody dilution series on immobilised biotinylated peptide
Ends that are not written are not given here.
ASSAY METRIC: pH 5.4: pH 7.2 EC 50 ratio

1) QLFYPSTYHIID (also: biotinylated, chemically synthesized biotinylated peptide) [Peptide 20] ... 6.7
2) GGMCHELFYSNLNWCQ (cysteine pairing not given here; also: biotinylated, chemically synthesized biotinylated peptide) [Peptide 22] ... 7.8
3) GGLCSTFYEPQVDICY (cysteine pairing not given here; also: biotinylated, chemically synthesized biotinylated peptide) [Peptide 29] ... 6.5

I: GGCHNKSGLFYHYC (cysteine pairing not given here; also: biotinylated, chemically synthesized biotinylated peptide) [Peptide 24]
II: GGHCVDMVDFYQQTCQ (cysteine pairing not given here; also: biotinylated, Chemically synthesized biotinylated peptide; also called 23 (Control)) [Peptide 23]
Could you point out whether the larger pH 5.4: pH 7.2 EC 50 ratio belongs to I or to II ? Write the label of whichever entry you select.
II
